Target: T1, prefusion stabilized SARS-CoV-2 S ectodomain (SARS-CoV-2, UniProt P0DTC2 14-1208)
T1 construct: also called SARS-CoV-2 spike ectodomain; ectodomain of the spike (S) homotrimer of SARS-CoV-2
Experiment: ELISA, coated S ectodomain [cont'd]
QUANTITY MEASURED: EC50 (µg/mL)
Please give a number only; it is taken to be in µg/mL.

BINDER	EC50 (µg/mL)
MnC2t2p1_C11 (antibody, V domains shown) VH: QVQLVQSGAEVKKPGSSVKVSCKASGGTFSRYTIIWVRQAPGQGLEWMGRIIPILDIANYAQKFQGRVTITADKSTSTAYMELSSLRSEDTAVYYCAREGGLDYFGSRNSGWTYTWFDPWGQGTLVTVSS VL: DIQMTQSPSSLSASVGDRVTITCRASQNISSYLNWYQQKPGKAPNLLIYAASSLQSGVPPRFSGSGSGTDFTLTISSLQPEDFATYYCQQSYSTLYSFGQGTKLEIK	0.02

Lab note: next binder to report on.
**Q:** # lookup: EC50 of MnC4t1p1_A11 (antibody, V domains shown) VH: EVQLVESGGGLVQPGGSLRLSCAASGFTFSSYSMNWVRQAPGKGLEWVSYISSSSNTRYYTDSVMGRFTISRDNAKNSLFLQMNSLRAEDTAVYYCASSKGFCSGGSCSDYWGQGTLVTVSS VL: EIVLTQSPGTLSLSPGERATLSCRASQSVSSSYLAWYQQKPGQAPRLLIYGVSSRATGIPDRFSGSGSGTDFTLTISRLEPEDFVVYYCHQYGSSPWTFGQGTKVEIK
**A:** 0.05

Data origin: patent US20210371503A1
